src = ChEMBL document CHEMBL3885861

The entries below are paired with their reported BUN.
- Species: Rattus norvegicus
- Experimental Details: Open TG-GATES - Regimen: Daily Repeat
- Format: toxicity, organism-based, Sprague-Dawley
- Parameters: regimen Daily Repeat, gender Male, age 6 weeks
- Experimental Conditions: in vivo, po, 0 mg/kg, 72 h, tissue Plasma, route gavage, dose level Control, time 3 day
Express it in mg/dL; write the number only.

O=C1CN(/N=C/c2ccc([N+](=O)[O-])o2)C(=O)N1 | 16.2
Cn1cc[nH]c1=S | 17
CCOC(=O)C(C)(C)Oc1ccc(Cl)cc1 [CLOFIBRATE] | 14
OCCN1CCN(CCCN2c3ccccc3Sc3ccc(C(F)(F)F)cc32)CC1 | 17.2
Cc1cccc(C)c1OCC(C)N (centres undefined) | 15.6
O=[N+]([O-])c1ccc(O)c([N+](=O)[O-])c1 | 15.6
C[C@H]1O[C@H](O[C@H]2[C@H](O)[C@@H](O)[C@@H](O[C@H]3[C@H](O)[C@@H](O)C(O)O[C@@H]3CO)O[C@@H]2CO)[C@H](O)[C@@H](O)[C@@H]1N[C@H]1C=C(CO)[C@@H](O)[C@H](O)[C@H]1O (some centres undefined) | 14
C[C@H]1C(=O)O[C@@H]2CCN3CC=C(COC(=O)[C@](C)(O)[C@]1(C)O)[C@H]23 | 18.2

For the compound shown here, C=C(C)[C@H]1Cc2c(ccc3c2O[C@@H]2COc4cc(OC)c(OC)cc4[C@@H]2C3=O)O1 , give the reported BUN.
18

* * *

- Organism: Rattus norvegicus
- Experimental Details: Open TG-GATES - Regimen: Single
- Assay type: toxicity, organism-based, Sprague-Dawley
- Design: regimen Single, gender Male, age 6 weeks
- Experimental Conditions: in vivo, po, 0 mg/kg, 6 h, tissue Blood, route gavage, dose level Control
The entries below are paired with their reported RBC.
Express it in x10_4/ul; write the number only.

Example results:
C[C@H]1C(=O)O[C@@H]2CCN3CC=C(COC(=O)[C@](C)(O)[C@]1(C)O)[C@H]23 | 626.4
Cc1cccc(C)c1OCC(C)N (stereo not given) | 627.6
OCCN1CCN(CCCN2c3ccccc3Sc3ccc(C(F)(F)F)cc32)CC1 | 601.2
O=[N+]([O-])c1ccc(O)c([N+](=O)[O-])c1 | 623.4

For the molecule shown here, CCOC(=O)C(C)(C)Oc1ccc(Cl)cc1 [CLOFIBRATE] , give the reported RBC.
654.6

* * *

The entries below are paired with their reported TG.
- Organism: Rattus norvegicus
- Experimental Details: Open TG-GATES - Regimen: Daily Repeat
- Format: toxicity, organism-based, Sprague-Dawley
- Design: regimen Daily Repeat, gender Male, age 6 weeks
- Experimental Conditions: in vivo, po, 0 mg/kg, […], tissue Plasma, route gavage, dose level Control, time 7 day
Express it in mg/dL; write the number only.

For the molecule shown here, C[C@H]1C(=O)O[C@@H]2CCN3CC=C(COC(=O)[C@](C)(O)[C@]1(C)O)[C@H]23 [MONOCROTALINE] , give the reported TG.
111

* * *

- Species: Rattus norvegicus
- Experimental Details: Open TG-GATES - Regimen: Single
- Type: toxicity, organism-based, Sprague-Dawley
- Design: regimen Single, gender Male, age 6 weeks
- Experimental Conditions: in vivo, po, 0 mg/kg, 9 h, tissue Plasma, route gavage, dose level Control
Measurement Kind: TP (g/dL)
Express it in g/dL; write the number only.

Cc1ccc2cc3c(ccc4ccccc43)c3c2c1CC3 | 5.5
Cn1cc[nH]c1=S | 5.5
CCOC(=O)C(C)(C)Oc1ccc(Cl)cc1 [CLOFIBRATE] | 5.5
Cc1cccc(C)c1OCC(C)N (stereo unspecified) | 5.5

For the compound shown here, O=[N+]([O-])c1ccc(O)c([N+](=O)[O-])c1 , give the reported TP.
5.4

For the compound shown here, OCCN1CCN(CCCN2c3ccccc3Sc3ccc(C(F)(F)F)cc32)CC1 , give the reported TP.
5.4
